- Measurement protocol: Half life in pancreatitis Sprague-Dawley rat blood at 30 mg/kg, iv after 30 mins
- Assay type: ADME, organism-based
- Set-up: dose 30 mg/kg, route intravenous
Measurement type: half-life (min)
Answers are plain numbers, in min.

Reported half-life, compound C[C@@H](O)[C@H]1C(=O)N2C(C(=O)O)=C(SCCN=CN)C[C@H]12 [IMIPENEM ANHYDROUS] : ____
17.3

###

- Measurement protocol: Cmax in pancreatitis Sprague-Dawley rat peritoneal fluid at 30 mg/kg, iv after 30 mins
- Format: ADME, organism-based
- Set-up: dose 30 mg/kg, route intravenous
Measurement type: Cmax (µg/mL)
Answers are plain numbers, in µg/mL.

Reported Cmax, compound C[C@@H](O)[C@H]1C(=O)N2C(C(=O)O)=C(SCCN=CN)C[C@H]12 [IMIPENEM ANHYDROUS] : ____
51.8

Source: ChEMBL document CHEMBL1255274
